B1: RIPK4 (parent)
chain: AAWQGHLPIVKLLAKQPGVSVNAQ

Variants of: B1
Test Name: protein stability index of a GFP-peptide fusion (GPS, HEK-293T) (PSI 1-6); higher = more stable;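 further: lentivirally expressed fusions sorted by FACS into six bins by GFP to DsRed ratio, PSI derived from sequencing read proportions per bin multiplied by bin number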
Measurement Parameters: c terminus: a fixed tail appended
# protein stability index annotations
Readout Kind: protein stability index

variant_designation=Q16P readout_kind="protein stability index" numeric_readout=2.27
variant_designation=N22A readout_kind="protein stability index" numeric_readout=2.15
variant_designation=V10R readout_kind="protein stability index" numeric_readout=2.37
variant_designation=Q4D readout_kind="protein stability index" numeric_readout=2.62
variant_designation=L12S readout_kind="protein stability index" numeric_readout=3.75
variant_designation=G5N readout_kind="protein stability index" numeric_readout=3.7
variant_designation=K11A readout_kind="protein stability index" numeric_readout=1.76
variant_designation=P8C readout_kind="protein stability index" numeric_readout=3.63
variant_designation=A14N readout_kind="protein stability index" numeric_readout=3.07
variant_designation=S20T readout_kind="protein stability index" numeric_readout=2.4
variant_designation=V21L readout_kind="protein stability index" numeric_readout=2.51
variant_designation=Q4I readout_kind="protein stability index" numeric_readout=1.34
variant_designation=S20C readout_kind="protein stability index" numeric_readout=2.88
variant_designation=Q16E readout_kind="protein stability index" numeric_readout=3.78
variant_designation=L13H readout_kind="protein stability index" numeric_readout=2.5
variant_designation=N22M readout_kind="protein stability index" numeric_readout=2.61
variant_designation=W3L readout_kind="protein stability index" numeric_readout=2.42
variant_designation=L12V readout_kind="protein stability index" numeric_readout=2.35
variant_designation=V10K readout_kind="protein stability index" numeric_readout=2.23
variant_designation=S20P readout_kind="protein stability index" numeric_readout=2.05
variant_designation=W3T readout_kind="protein stability index" numeric_readout=3.56
variant_designation=V10F readout_kind="protein stability index" numeric_readout=2.16
variant_designation=N22G readout_kind="protein stability index" numeric_readout=1.98
variant_designation=A14Q readout_kind="protein stability index" numeric_readout=2.14
variant_designation=V10Q readout_kind="protein stability index" numeric_readout=2.56
variant_designation=A2Y readout_kind="protein stability index" numeric_readout=2.12
variant_designation=Q16L readout_kind="protein stability index" numeric_readout=2
variant_designation=V21K readout_kind="protein stability index" numeric_readout=2.8
variant_designation=G5C readout_kind="protein stability index" numeric_readout=2.69
variant_designation=K15P readout_kind="protein stability index" numeric_readout=1.28
variant_designation=A14T readout_kind="protein stability index" numeric_readout=2.42
variant_designation=P17L readout_kind="protein stability index" numeric_readout=2.58
variant_designation=L7P readout_kind="protein stability index" numeric_readout=3.21
variant_designation=L12A readout_kind="protein stability index" numeric_readout=3.04
variant_designation=G18I readout_kind="protein stability index" numeric_readout=2.01
variant_designation=W3A readout_kind="protein stability index" numeric_readout=3.2
variant_designation=L13P readout_kind="protein stability index" numeric_readout=3.55
variant_designation=G18T readout_kind="protein stability index" numeric_readout=2.54
variant_designation=V21D readout_kind="protein stability index" numeric_readout=3.05
variant_designation=K11T readout_kind="protein stability index" numeric_readout=2.1
variant_designation=K15D readout_kind="protein stability index" numeric_readout=3.15
variant_designation=G18D readout_kind="protein stability index" numeric_readout=3.03
variant_designation=G18A readout_kind="protein stability index" numeric_readout=2.67
variant_designation=S20H readout_kind="protein stability index" numeric_readout=1.97
variant_designation=V10T readout_kind="protein stability index" numeric_readout=2.78
variant_designation=L7I readout_kind="protein stability index" numeric_readout=2.76
variant_designation=G18M readout_kind="protein stability index" numeric_readout=1.61
variant_designation=A2P readout_kind="protein stability index" numeric_readout=3.69
variant_designation=A1F readout_kind="protein stability index" numeric_readout=3.12
variant_designation=V10P readout_kind="protein stability index" numeric_readout=2.75
variant_designation=N22F readout_kind="protein stability index" numeric_readout=1.55
variant_designation=A23S readout_kind="protein stability index" numeric_readout=2.52
variant_designation=Q16V readout_kind="protein stability index" numeric_readout=2.14
variant_designation=K15H readout_kind="protein stability index" numeric_readout=2.43
variant_designation=N22R readout_kind="protein stability index" numeric_readout=1.98
variant_designation=S20L readout_kind="protein stability index" numeric_readout=1.76
variant_designation=P17S readout_kind="protein stability index" numeric_readout=2.46
variant_designation=L12H readout_kind="protein stability index" numeric_readout=3.33
variant_designation=W3S readout_kind="protein stability index" numeric_readout=3.65
variant_designation=N22P readout_kind="protein stability index" numeric_readout=2.19
variant_designation=P17Q readout_kind="protein stability index" numeric_readout=2.37
variant_designation=I9V readout_kind="protein stability index" numeric_readout=2.64
variant_designation=L13Q readout_kind="protein stability index" numeric_readout=4.64
variant_designation=K15M readout_kind="protein stability index" numeric_readout=2.11
variant_designation=Q16S readout_kind="protein stability index" numeric_readout=2.56
variant_designation=A23V readout_kind="protein stability index" numeric_readout=2.19
variant_designation=Q16D readout_kind="protein stability index" numeric_readout=3.25
variant_designation=W3K readout_kind="protein stability index" numeric_readout=3.21
variant_designation=K11R readout_kind="protein stability index" numeric_readout=1.72
variant_designation=A1E readout_kind="protein stability index" numeric_readout=2.24
variant_designation=H6M readout_kind="protein stability index" numeric_readout=1.86
variant_designation=A23Y readout_kind="protein stability index" numeric_readout=1.63
variant_designation=S20Y readout_kind="protein stability index" numeric_readout=1.66
variant_designation=A23T readout_kind="protein stability index" numeric_readout=2.4
variant_designation=L13F readout_kind="protein stability index" numeric_readout=2.39
variant_designation=S20W readout_kind="protein stability index" numeric_readout=2.83
variant_designation=V21G readout_kind="protein stability index" numeric_readout=1.6
variant_designation=I9N readout_kind="protein stability index" numeric_readout=1.79
variant_designation=V21Y readout_kind="protein stability index" numeric_readout=1.89
variant_designation=H6L readout_kind="protein stability index" numeric_readout=1.45
variant_designation=L12N readout_kind="protein stability index" numeric_readout=3.59
variant_designation=Q16T readout_kind="protein stability index" numeric_readout=2.5
variant_designation=Q24D readout_kind="protein stability index" numeric_readout=3.29
variant_designation=V10G readout_kind="protein stability index" numeric_readout=2.36
variant_designation=V21P readout_kind="protein stability index" numeric_readout=2.3
variant_designation=V19W readout_kind="protein stability index" numeric_readout=1.61
variant_designation=A2L readout_kind="protein stability index" numeric_readout=2.38
variant_designation=V10Y readout_kind="protein stability index" numeric_readout=3.72
variant_designation=I9W readout_kind="protein stability index" numeric_readout=2.63
variant_designation=W3C readout_kind="protein stability index" numeric_readout=3.78
variant_designation=A14Y readout_kind="protein stability index" numeric_readout=2.09
